Values from ChEMBL document CHEMBL5523671

- target: Amine oxidase [copper-containing] 3 (Bos taurus)
- measurementProtocol: Inhibition of bovine plasma VAP-1 using 6-(5-Pheny1-2H-tetrazol-2-yl)hexan-1-amine as substrate at 10 uM preincubated with enzyme for 15 mins followed by substrate addition measured after 30 mins by UV-HPLC analysis relative to control
- Type: cell-free
- setupConditions: time 45.0 min
Active and inactive are the calls of the source. The rule behind the calls is not given here.
measuredAttribute: inhibition

The cases that follow already have their inhibition on record.
In [3]: df
Out[3]:
                               compound                                    target  measuredattribute  result
0      NCC(=O)NCCCCCCn1nnc(-c2cccnc2)n1  Amine oxidase [copper-containing] 3 (Bos taurus)         inhibition     45%
1  NCC(=O)NCc1ccccc1Cn1nnc(-c2ccccc2)n1  Amine oxidase [copper-containing] 3 (Bos taurus)         inhibition     18%
2        NCC(=O)NCCCCn1nnc(-c2ccccc2)n1  Amine oxidase [copper-containing] 3 (Bos taurus)         inhibition     29%
3      NCC(=O)NCCCCCCn1cnc(-c2ccccc2)c1  Amine oxidase [copper-containing] 3 (Bos taurus)         inhibition     33%
4      NCC(=O)NCCCCCCn1nnc(-c2ccccn2)n1  Amine oxidase [copper-containing] 3 (Bos taurus)         inhibition     49%

Record request: inhibition value, item NCC(=O)NCCCCCn1nnc(-c2ccccc2)n1
45%

Record request: inhibition value, item NCC(=O)NC1CCC(CCn2nnc(-c3ccccc3)n2)CC1 (centres undefined)
inactive

Record request: inhibition value, item NCC(=O)NCCCn1nnc(-c2ccccc2)n1
29%

----------
- target: UniProt:Q9TTK6
- measurementProtocol: Stability of compound assessed as bovine plasma VAP-1 mediated drug degradation by measuring parent compound remaining at 10 uM incubated for 60 mins by HPLC-MS analysis
- Format: ADME, cell-free
- setupConditions: cattle, bovine plasma VAP-1 (amine oxidase [copper-containing] 3), read-out: Stability
Would you kindly list remaining at 1 h, 10 µM for each of these compounds?
Please respond with the number in % and leave the unit unwritten.

For the record CN(Cc1cccc(Cn2nnc(-c3ccccc3)n2)c1)C(=O)CN , what value of remaining at 1 h, 10 µM is listed for UniProt:Q9TTK6?
65

For the record Cl.NCC(=O)NCc1cccc(Cn2nnc(-c3ccccc3)n2)c1 , what value of remaining at 1 h, 10 µM is listed for UniProt:Q9TTK6?
93

For the record NCC(=O)NCc1cccc(-c2ccccc2)c1 , what value of remaining at 1 h, 10 µM is listed for UniProt:Q9TTK6?
66

For the record NCC(=O)NCc1ccc(Cn2nnc(-c3ccccc3)n2)cc1 , what value of remaining at 1 h, 10 µM is listed for UniProt:Q9TTK6?
69

For the record CS(=O)(=O)c1ccc(-c2nnn(CCCCCCNC(=O)CN)n2)cc1 , what value of remaining at 1 h, 10 µM is listed for UniProt:Q9TTK6?
23

For the record NCC(=O)NCc1ccccc1Cn1nnc(-c2ccccc2)n1 , what value of remaining at 1 h, 10 µM is listed for UniProt:Q9TTK6?
84

----------
Would you kindly list remaining at 0.5 h, 1 µM for each of these compounds?
- target: VAP-1 (amine oxidase [copper-containing] 3) (Bos taurus)
- Sequence (Q9TTK6 whole entry): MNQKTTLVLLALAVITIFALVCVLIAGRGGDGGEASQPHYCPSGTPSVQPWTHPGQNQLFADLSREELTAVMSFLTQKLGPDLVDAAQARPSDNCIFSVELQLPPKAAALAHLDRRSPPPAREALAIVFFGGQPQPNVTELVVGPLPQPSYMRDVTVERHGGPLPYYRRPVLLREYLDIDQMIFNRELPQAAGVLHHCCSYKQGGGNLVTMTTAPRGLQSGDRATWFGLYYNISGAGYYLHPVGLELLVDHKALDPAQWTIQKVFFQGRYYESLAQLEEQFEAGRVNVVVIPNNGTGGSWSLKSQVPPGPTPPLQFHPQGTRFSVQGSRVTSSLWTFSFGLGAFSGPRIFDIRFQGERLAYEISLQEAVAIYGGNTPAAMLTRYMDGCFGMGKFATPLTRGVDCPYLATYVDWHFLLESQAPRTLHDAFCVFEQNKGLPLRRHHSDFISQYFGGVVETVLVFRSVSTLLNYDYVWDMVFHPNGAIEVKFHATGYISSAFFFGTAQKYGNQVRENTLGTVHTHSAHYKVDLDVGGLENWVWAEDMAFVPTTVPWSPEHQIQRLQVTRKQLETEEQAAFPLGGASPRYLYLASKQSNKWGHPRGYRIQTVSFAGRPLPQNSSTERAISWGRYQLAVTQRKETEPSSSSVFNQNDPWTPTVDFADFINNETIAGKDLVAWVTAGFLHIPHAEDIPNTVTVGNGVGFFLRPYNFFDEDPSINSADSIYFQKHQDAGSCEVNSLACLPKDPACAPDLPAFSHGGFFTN
- measurementProtocol: Stability of compound assessed as bovine plasma VAP-1 mediated drug degradation by measuring parent compound remaining at 1 uM incubated for 30 mins by HPLC-MS analysis
- Type: ADME, cell-free
- setupConditions: cattle, bovine plasma VAP-1 (amine oxidase [copper-containing] 3), read-out: Stability
Please respond with the number in % and leave the unit unwritten.

Record request: remaining at 0.5 h, 1 µM value, item Cl.N#Cc1ccc(-c2nnn(Cc3cccc(CNC(=O)CN)c3)n2)cc1
49

Record request: remaining at 0.5 h, 1 µM value, item Cl.NCC(=O)NCc1cccc(Cn2nnc(-c3ccccc3)n2)c1
47
